- Tested on: p44/42 MAPK
- protocol.notes: intracellular phospho-p44/42 MAPK by flow cytometry in ICAM-2 treated Jurkat cells
- Format: cell-based, human
- conditions: chemical agents 10 μM, EDTA 1 mM; mAbs titrated prior to ICAM-2
parameter: effect on ICAM-2 induced p44/42 MAPK phosphorylation

Before answering, review these 5 worked examples.
INSERT INTO results (compound, result_value) VALUES
  ('O=C(O)CN(CCN(CC(=O)O)CC(=O)O)CC(=O)O', 'diminished'),
  ('CC(=O)O[C@H]1C(=O)[C@@]2(C)[C@H]([C@H](OC(=O)c3ccccc3)[C@]3(O)C[C@H](OC(=O)[C@H](O)[C@@H](NC(=O)c4ccccc4)c4ccccc4)C(C)=C1C3(C)C)[C@]1(OC(C)=O)CO[C@@H]1C[C@@H]2O', 'diminished'),
  ('Cc1cc(O)c2c(c1)C(=O)c1cc(O)cc(O)c1C2=O', 'no effect'),
  ('CO[C@H]1[C@@H](OC)C[C@H](C)[C@@H](OC)C2=CC(=O)C=C(NC(=O)/C(C)=C/C=C\[C@H](OC)[C@@H](OC(N)=O)/C(C)=C/[C@@H]1C)C2=O', 'no effect'),
  ('CN(C)CCCn1cc(C2=C(c3c[nH]c4ccccc34)C(=O)NC2=O)c2ccccc21 [bisindolymaleimide I]', 'diminished');

Okay, now this compound:
Qu. Reported effect on ICAM-2 induced p44/42 MAPK phosphorylation, compound `COC(=O)Nc1nc2cc(C(=O)c3cccs3)ccc2[nH]1` : ____
Ans. diminished
